# assayNotes: cytotoxicity: viability of mock-infected host (MT-4) cells (MTT)
# Type: cell-based
# setupConditions: human, Cytotoxic concentration that causes death of MT4 cells by 50%, MTT method, read-out: CD50 (the source's name)
Classify: condition met when CC50 is strictly less than 50 µg/mL; condition not met when CC50 is not.

> print(dat)
                                    compound        answerlabel
 1  Cc1cn([C@H]2C[C@H](N=[N+]=[N-])[C@@H](CO)O2)c(=O)[nH]c1=O [AZT, 3'-azido-3'-deoxythymidine, reference compound]      condition met
 2   CCOCn1c(Oc2ccccc2)c(C(C)C)c(=O)[nH]c1=O  condition not met
 3  Cc1cc(C)cc(C(=O)c2c(C(C)C)c(=O)[nH]c(=O)n2COCc2ccccc2)c1      condition met
 4  CCc1c(Oc2cc(C)cc(C)c2)n(COCCO)c(=O)[nH]c1=O      condition met
 5  CC(C)c1c(C(=O)c2ccccc2)n(COCc2ccccc2)c(=O)[nH]c1=O      condition met
 6  Cc1cc(C)cc(Oc2c(C(C)C)c(=O)[nH]c(=O)n2COCc2ccccc2)c1      condition met
 7  CCOCn1c(Oc2cc(C)cc(C)c2)c(CC)c(=O)[nH]c1=O  condition not met
 8  CCc1c(C(=O)c2cc(C)cc(C)c2)n(COCc2ccccc2)c(=O)[nH]c1=O      condition met
 9  CCOCn1c(C(=O)c2cc(C)cc(C)c2)c(C(C)C)c(=O)[nH]c1=O      condition met
10  CCc1c(Oc2cc(C)cc(C)c2)n(COCc2ccccc2)c(=O)[nH]c1=O      condition met
11  CC(=O)OCCOCn1c(Oc2cc(C)cc(C)c2)c(C(C)C)c(=O)[nH]c1=O  condition not met
12  CCOCn1c(C(=O)c2ccccc2)c(C(C)C)c(=O)[nH]c1=O  condition not met
13      CCOCn1c(Oc2ccccc2)c(CC)c(=O)[nH]c1=O      condition met
14  CC(C)c1c(Oc2ccccc2)n(COCc2ccccc2)c(=O)[nH]c1=O      condition met
15  COCCOCn1c(C(=O)c2cc(C)cc(C)c2)c(C(C)C)c(=O)[nH]c1=O  condition not met
16  Cc1cc(C)cc(Oc2c(C(C)C)c(=O)[nH]c(=O)n2COCCO)c1  condition not met
17  Cc1cc(C)cc(C(=O)c2c(C(C)C)c(=O)[nH]c(=O)n2COCCO)c1  condition not met

====

# assayNotes: cytotoxicity: viability of mock-infected host (MT-4) cells (MTT)
# Assay type: cell-based
# setupConditions: human, Cytotoxic concentration that causes death of MT4 cells by 50%, MTT method, read-out: CD50 (the source's name)
Catalogue of CC50 readings, one per entry.
recordedEndpoint: CC50 (µg/mL)

> print(dat)
                                 testsmiles  recordedendpoint  unitname  testvalue
1  CCOCn1c(C(=O)c2ccccc2)c(CC)c(=O)[nH]c1=O              CC50     µg/mL        103
2  CCOCn1c(Oc2cc(C)cc(C)c2)c(C(C)C)c(=O)[nH]c1=O              CC50     µg/mL       21.6
3  CCc1c(Oc2cc(C)cc(C)c2)n(COCCOC(C)=O)c(=O)[nH]c1=O              CC50     µg/mL       9.52
4  CCOCn1c(C(=O)c2cc(C)cc(C)c2)c(CC)c(=O)[nH]c1=O              CC50     µg/mL       5.86
5  COCCOCn1c(Oc2cc(C)cc(C)c2)c(C(C)C)c(=O)[nH]c1=O              CC50     µg/mL        126
